TEST_SYSTEM: UniProt P00915
Sequence (P00915 whole entry): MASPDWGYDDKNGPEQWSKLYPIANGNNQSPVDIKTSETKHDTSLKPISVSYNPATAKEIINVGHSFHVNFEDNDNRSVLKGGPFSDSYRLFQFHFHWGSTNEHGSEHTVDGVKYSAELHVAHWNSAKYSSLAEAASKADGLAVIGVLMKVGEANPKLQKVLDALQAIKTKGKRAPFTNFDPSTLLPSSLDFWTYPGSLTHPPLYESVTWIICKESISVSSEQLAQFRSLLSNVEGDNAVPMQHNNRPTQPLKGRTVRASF
PROTOCOL_DETAILS: Stopped flow CO2 hydrase assay, hCA I
Assay type: biochemical
PARAMETER: Ki (nM)
Numbers only, in nM.

Consider the following illustrative entries.
{"STRUCTURE_STRING": "N#Cc1c(-c2ccco2)[n+]([O-])c2cc(S(N)(=O)=O)ccc2[n+]1[O-]", "RESULT_UNITS": "nM", "VALUE": 38}
{"STRUCTURE_STRING": "N#Cc1c(-c2ccc(Cl)cc2)[n+]([O-])c2ccc(S(N)(=O)=O)cc2[n+]1[O-]", "RESULT_UNITS": "nM", "VALUE": 40.3}
{"STRUCTURE_STRING": "N#Cc1c(-c2ccc(Cl)cc2)[n+]([O-])c2cc(S(N)(=O)=O)ccc2[n+]1[O-]", "RESULT_UNITS": "nM", "VALUE": 53.7}
{"STRUCTURE_STRING": "CC(=O)c1c(C)[n+]([O-])c2cc(S(N)(=O)=O)ccc2[n+]1[O-]", "RESULT_UNITS": "nM", "VALUE": 65.7}
{"STRUCTURE_STRING": "N#Cc1c(-c2ccccc2)[n+]([O-])c2ccc(S(N)(=O)=O)cc2[n+]1[O-]", "RESULT_UNITS": "nM", "VALUE": 60.7}

[ask] Item N#Cc1c(-c2ccccc2)[n+]([O-])c2cc(S(N)(=O)=O)ccc2[n+]1[O-] with UniProt P00915 - Ki?
[reply] 49.1

====

Tested on: HCT-116
PROTOCOL_DETAILS: Antiproliferative assay, HCT-116
Assay type: cell-based
MEASUREMENT_SETUP: Homo sapiens, HCT-116, read-out: IC50 HCT-116
What IC50 was measured for each of the following?

{"STRUCTURE_STRING": "N#Cc1c(-c2ccco2)[n+]([O-])c2cc(S(N)(=O)=O)ccc2[n+]1[O-]", "IC50": "> 100 µM"}
{"STRUCTURE_STRING": "N#Cc1c(-c2cccs2)[n+]([O-])c2cc(S(N)(=O)=O)ccc2[n+]1[O-]", "IC50": "> 100 µM"}

We next turn to a different compound, shown below.
[ask] For the compound CCOC(=O)c1c(-c2ccccc2)[n+]([O-])c2cc(S(N)(=O)=O)ccc2[n+]1[O-] , what IC50 is on record?
[reply] > 100 µM
